# System: HCMV (Davis strain)
# testDetails: Anti-HCMV screening test: spread of cytopathogenic effect in HELF cell cultures
# Format: cell-based, human cytomegalovirus
# assaySetup: Human betaherpesvirus 5, 144 h, concentration causing 50% inhibition of the CPE, HELF cells, 6 days
measuredAttribute: IC50

givensmiles=Nc1nc(O)c2ncn(COC(CO)CO)c2n1 assayedsystem="HCMV (Davis strain)" measuredattribute=IC50 result="2 to 4 µM"

###

# assayedSystem: HIV protease (HIV-1) (Human immunodeficiency virus type 1 group M subtype B, UniProt P04585)
# Construct: purified HIV protease was incubated with a synthetic peptide
# testDetails: HIV-specific protease enzyme test (synthetic peptide cleavage, RP-HPLC)
# Assay type: biochemical
# assaySetup: 50% inhibition of protease activity; purified HIV protease, synthetic Gag cleavage-site peptide
Numbered stars: 1 amine (or outer) side, 2 acyl side, 3 side chain; on linkers, the order of the positions; unused ones are H or OH. Square brackets hold non-standard residues; d marks the D form. Peptide text beside a SMILES is read from it. CO = O=C([*:1])[*:2]
This section presents molecules with their documented IC50 values.
measuredAttribute: IC50 (µM)

molecule="CC(C)[C@H](NC(=O)[C@H](CCCNC(=N)N)NC(=O)N[C@@H](Cc1ccccc1)C(=O)O)C(=O)N[C@@H](C=O)Cc1ccccc1 [IX] ({Phe-CO}-Arg-Val-[dF]-aldehyde)" quantitativereadout=160
molecule="CC(C)[C@H](NC(=O)[C@H](CCCNC(=N)N)NC(=O)N[C@@H](Cc1ccccc1)C(=O)O)C(=O)N[C@H](C=O)Cc1ccccc1 [VIII] ({Phe-CO}-Arg-Val-Phe-aldehyde)" quantitativereadout=19
